Attribution: PubChem BioAssay (Tox21)

test.protocol: qHTS assay to identify small molecule antagonists of the thyroid receptor (TR) signaling pathway (AID 743065); also: nearly all actives have a fitted effect of over 55% in size
reported.conditions: GH3.TRE-Luc, T3-stimulated luciferase inhibition, 23.5 h; series mostly up to 70.3 µM
Results filed as inconclusive are left out. Active and inactive are the calls of the source. Calls follow the shape of the dose curve; as a rule, active = well fitted inhibition curve with a large enough effect in the repeat runs; inconclusive = weak or mixed curves; inactive = no such curve, though single readings can be large or run the other way.
Answer with one of the outcomes T (active), F (inactive)

Please let me know the test result on file for CC[C@H]1OC(=O)[C@H](C)[C@@H](O[C@H]2C[C@@](C)(OC)[C@@H](O)[C@H](C)O2)[C@H](C)[C@@H](O[C@@H]2O[C@H](C)C[C@H](N(C)C)[C@H]2O)[C@](C)(O)C[C@@H](C)/C(=N\OCOCCOC)[C@H](C)[C@@H](O)[C@]1(C)O .
F

Each molecule tested received a call. Report the one for CC1=CC[C@@]23C[C@@H]1C(C)(C)[C@@H]2CC[C@H]3C .
F

// outcome(item) with item = COC(=O)c1sccc1S(N)(=O)=O
F

Give the logged outcome of this assay for the following molecule: CCNc1nc(N)nc(Cl)n1
F

Would you mind telling me which call this test gave Cc1ccc(Cl)cc1N ?
F

Hey, what did the test say about c1ccc(CCCc2ccncc2)cc1 ?
F

Could you kindly confirm the outcome this assay logged for O=C(c1ccccc1)c1ccc(O)cc1 ?
F

What call does the record list for COC1CCC=CO1 (stereo unspecified) ?
F

What did this assay record as the result for O=C(O)CO ?
F
